Assay: yeast display, Sf9 membrane polyspecificity reagent, FACS + sequencing; frameworks hold sequencing errors
REPORTED_ENDPOINT: polyreactivity (PSR sort gate)

Consider the following illustrative entries.
[
  {
    "SEQUENCE_STRING": "QVQLVESGGALVQAGGSLRLSCAASRSIFSNAMGWYRQAPRKERELDAAITGRGGRTYYADSVKGRFTISRDNAKYTVYLQMNSLNPEDTAVYYCARDSPWSSRYRYRAFDYWGQGTQVTVSS",
    "polyreactivity (PSR sort gate)": "high polyreactivity"
  },
  {
    "SEQUENCE_STRING": "QVQLVESGGGIVQAGGSLRLICAASGLILYGYTMGWYRQAPGKDRQLVAAISRGGGGTYYADSVKGRFTISRDNVKNTVYLQINSLKPEDTAVYYCAAYVYSLGGEYFYWGQGTLVTVSS",
    "polyreactivity (PSR sort gate)": "high polyreactivity"
  },
  {
    "SEQUENCE_STRING": "QVQLVESGGGLVQAGGSLRLSCSASGITFFTYAMGWYRQAPGKERELVAAISGSGGSTYYADSVKGRFTISRDNAKNTVYLQMNSLKPEDTADYYCAAEYTYASPYDYWGQGTQVTVSS",
    "polyreactivity (PSR sort gate)": "low polyreactivity"
  },
  {
    "SEQUENCE_STRING": "QVQLVESGGGLVQAGGSLRLSCAAYGIIFWINSMGRYRPAPGKEREVVAAITSGGTTYYADSVKGRFTISRDNGKNTVYLQMNILKPEDTAVYYCAARVRGARDYYWGQGTQVTVSS",
    "polyreactivity (PSR sort gate)": "high polyreactivity"
  },
  {
    "SEQUENCE_STRING": "QVQLVESGGGLVQAGGSLRLSCAASGSTFRYYAMGWYRQAPGKERELVAAITYRGSSTYYADSVKGRFTISRDNAKNTVYLQMNSLKPEDTAVYYCARRYAGDYYYWGQGTQVTVSS",
    "polyreactivity (PSR sort gate)": "high polyreactivity"
  },
  {
    "SEQUENCE_STRING": "QVQLVESGGGLVQAGGSLRLSCAASGSIFPYAMGWYRQSPGKERELVAAITRSGASTYYADSVKGRFTISRDNAKNTVYLQMNSLKPEDTAVYYCAAYALRGVRYPYRVDFYYWGQGTQVTVSS",
    "polyreactivity (PSR sort gate)": "high polyreactivity"
  },
  {
    "SEQUENCE_STRING": "QVQLVESGGGLVQAGGSLRLSCAASGSTFDRYAMAWYRQAPGKERELVAAISKNGGRTYYADSVKGRFTISRDNAKNTVYLQMNSLKPEDTAVYYCAKDIIKYDYDYWGQGTQVTVSS",
    "polyreactivity (PSR sort gate)": "low polyreactivity"
  },
  {
    "SEQUENCE_STRING": "QVQLVESGGGLVQAGGSLRLSCAASGRIFYRNAMGWYRQAPGKDRELVAGISKRGGSTYYADSVKGRFTISRDNAKNTVYLQMTSLKPEDTAVYYCNKVSFLNSHKSRGNRYYYWGQGTQVTVSS",
    "polyreactivity (PSR sort gate)": "high polyreactivity"
  }
]

query: Quick one: polyreactivity (PSR sort gate) of `QVQLVESGGGLVQAGGRLRLSCAASGIIFGYYALGWYRQAPGKERELVAAISSGGTTSYADSVKGRFTISRDNAKNTDYLQMNSLKPEDTAVYYCAADYDAAWYKDGYYYWGQGTQVTVSS` ?
result: low polyreactivity

query: Quick one: polyreactivity (PSR sort gate) of `QVQLVESGGGLVQAGGSLRLSCAASGSTYLINAMGWYRQAPGNERELVAAISDSGGSTHYADSVKGRFTISRDHAINTVYLHMKSLNPEDTAVYYCAATIPTTLILYGYWGQGTQVTVSS` ?
result: low polyreactivity

query: Quick one: polyreactivity (PSR sort gate) of `QVQLVQSGGGLVQAGGSLRLSCAASGSTFSQYVMGWYRQARGKERELVAAINKNGGRTYYADSVKGRFTISRDNAKNTVYFQMISLKPEDTAVYYCAADVYGQDDYWGQGTQVTVSS` ?
result: high polyreactivity
